Target: hNMB-receptor (Homo sapiens, UniProt P28336)
Sequence (P28336 whole entry): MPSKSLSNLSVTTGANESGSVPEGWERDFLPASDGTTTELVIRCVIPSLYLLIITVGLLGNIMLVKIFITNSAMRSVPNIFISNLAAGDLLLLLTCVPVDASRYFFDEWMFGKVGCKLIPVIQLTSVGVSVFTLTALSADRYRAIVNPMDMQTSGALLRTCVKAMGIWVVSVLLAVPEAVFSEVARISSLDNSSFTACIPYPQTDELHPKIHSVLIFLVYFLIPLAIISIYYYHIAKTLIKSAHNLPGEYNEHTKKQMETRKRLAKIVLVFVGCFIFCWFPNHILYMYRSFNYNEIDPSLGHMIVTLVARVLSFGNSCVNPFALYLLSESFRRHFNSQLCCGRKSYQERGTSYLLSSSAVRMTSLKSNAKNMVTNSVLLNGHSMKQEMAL
Test: Whole cell radioligand binding, hNMB-receptor transfected NCI-H1299 cells
Square brackets hold non-standard residues; d marks the D form. Peptide text beside a SMILES is read from it. dPhe(F5) = N[C@H](Cc1c(F)c(F)c(F)c(F)c1F)C(=O)O
parameter: IC50

• CCNC(=O)[C@H](CC(C)C)NC(=O)[C@H](Cc1c[nH]cn1)NC(=O)CNC(=O)[C@@H](NC(=O)[C@H](C)NC(=O)[C@H](Cc1c[nH]c2ccccc12)NC(=O)[C@H](CCC(N)=O)NC(=O)[C@H](N)Cc1ccccc1)C(C)C [Peptide 10, [D-Phe^6]Bn(6-13)Ethylamide] = > 10 µM
• CCCNC(=O)[C@H](CC(C)C)NC(=O)[C@H](Cc1c[nH]cn1)NC(=O)CNC(=O)[C@@H](NC(=O)[C@H](C)NC(=O)[C@H](Cc1c[nH]c2ccccc12)NC(=O)[C@H](CCC(N)=O)NC(=O)[C@H](N)Cc1ccccc1)C(C)C [Peptide 11, [D-Phe^6-Bn](6-13)Propylamide (PA)] = 3.09 µM

Now for another entry.
Problem: Look up and report measured IC50 for this entry: COC(=O)[C@H](CC(C)C)NC(=O)[C@H](Cc1c[nH]cn1)NC(=O)[C@@H](C)NC(=O)[C@@H](NC(=O)[C@H](C)NC(=O)[C@H](Cc1c[nH]c2ccccc12)NC(=O)[C@H](CCC(N)=O)NC(=O)[C@H](N)Cc1c(F)c(F)c(F)c(F)c1F)C(C)C [Peptide 18] (H-[dPhe(F5)]QWAV[dA]HL-OMe)
Solution: > 10 µM

---

Would you mind telling me the reported pIC50 of each entry?
Molecular target: hNMB-receptor (Homo sapiens, UniProt P28336)
Test: Whole cell radioligand binding, hNMB-receptor transfected Balb 3T3 cells
Details: IC50 hNMB-R Balb-3T3, hNMB-receptor transfected Balb 3T3 cells; 125I-[D-Tyr0]NMB, 1 h, 22°C; mean ± S.E.
pIC50: −log10 of the molar value. Square brackets hold non-standard residues; d marks the D form. Peptide text beside a SMILES is read from it. * marks the point of attachment. dPhe(F5) = N[C@H](Cc1c(F)c(F)c(F)c(F)c1F)C(=O)O; NHPr = CCCN*

The cases that follow already have their pIC50 on record.
- CCOC(=O)[C@H](CC(C)C)NC(=O)[C@H](Cc1c[nH]cn1)NC(=O)CNC(=O)[C@@H](NC(=O)[C@H](C)NC(=O)[C@H](Cc1c[nH]c2ccccc12)NC(=O)[C@H](CCC(N)=O)NC(=O)[C@H](N)Cc1ccccc1)C(C)C [Peptide 20, [D-Phe^6]Bn-(6-13)Ethyl ester]: < 5.00
- COC(=O)[C@H]1CCCN1C(=O)[C@H](Cc1c[nH]cn1)NC(=O)[C@@H](C)NC(=O)[C@@H](NC(=O)[C@H](C)NC(=O)[C@H](Cc1c[nH]c2ccccc12)NC(=O)[C@H](Cc1c[nH]cn1)NC(=O)[C@H](N)Cc1c(F)c(F)c(F)c(F)c1F)C(C)C [Peptide 19] (H-[dPhe(F5)]HWAV[dA]H[dP]-OMe): < 5.00

Now for another entry.
Problem: Look up and report measured pIC50 for this entry: CCCNC(=O)[C@H](Cc1ccccc1)NC(=O)[C@H](Cc1c[nH]cn1)NC(=O)CNC(=O)[C@@H](NC(=O)[C@H](C)NC(=O)[C@H](Cc1c[nH]c2ccccc12)NC(=O)[C@H](CCC(N)=O)NC(=O)[C@H](N)Cc1ccccc1)[C@@H](C)O [Peptide 13, [D-Phe^6,Thr^10, Phe^13]Bn(6-13)PA] (H-[dF]QWATGHF-NHPr)
Solution: 5.88

Origin of values: paper PMC2766550
